src = patent US20110183978A1

measurementDescription: physchem
conditionSet: LogPA
measurementType: chromatographic logP
I only need the number, thanks.

# input Using known records, supply chromatographic logP for CC(c1cnc(Cl)s1)n1cc(-c2ccncc2)c(-c2ccc(F)cc2)n1 (stereo not shown)
# output 1.82

# input Using known records, supply chromatographic logP for CC(C)Nc1nccc(-c2cn(CCCl)nc2-c2ccc(F)cc2)n1
# output 2.05

---

measurementDescription: physchem
conditionSet: pH 2.7, logP (pH 2.7)
measurementType: chromatographic logP

# input Using known records, supply chromatographic logP for CC(C)n1cc(-c2ccncc2)c(-c2c(F)cccc2F)n1 [[I-d-1]]
# output 1.4

# input Using known records, supply chromatographic logP for CC(C)n1cc(B2OC(C)(C)C(C)(C)O2)c(-c2ccc(F)cc2)n1 [[V-1]]
# output 4.51

# input Using known records, supply chromatographic logP for CC(C)(C)OC(=O)N1CCC(n2cc(Br)c(-c3ccc(F)cc3)n2)CC1 [[VI-27]]
# output 4.77

# input Using known records, supply chromatographic logP for CCOC(=O)Nc1cc(B2OC(C)(C)C(C)(C)O2)ccn1 [[XV-a-6]]
# output 0

# input Using known records, supply chromatographic logP for Cn1cc(Br)c(-c2ccc(F)cc2)n1 [[V1-8]]
# output 2.86

# input Using known records, supply chromatographic logP for COc1cc(F)ccc1-c1nn(C)c(OC(F)F)c1Br [[VI-b-4]]
# output 3.15

# input Using known records, supply chromatographic logP for Fc1ccc(-c2n[nH]c(Br)c2-c2ccncc2)cc1 [[XXVIII-1]]
# output 0.92
